Tested on: HSP70
Test: HSP70 protein boosting in HL-1 cardiomyocytes after mild heat shock (Western blot)
Assay type: cell-based, mouse
Details: HL-1, mild heat shock, 10 μM, 6 hours
Description: HL-1 atrial myocytes, a cell line derived from adult mouse atria were obtained from Dr. William Claycomb (Louisiana State University, New Orleans, La., USA). […] Western-blot analysis was performed as described previously^3, 10. […] Signals were detected by the ECL-detection method (Amersham, The Netherlands) and quantified by densitometry using GeneTools software from Syngene (The Netherlands). […]
Parameter: induction of mammalian HSP70 protein expression

# Compound, Result
rows = [
    ("CC(C)=CCC/C(C)=C/CNC(=O)CN(C)C", "potent inducers"),
    ("CC(=O)CC(=O)CC/C=C(\\C)CCC=C(C)C", "potent inducers"),
    ("CCOC(=O)C(C)(C)C(=O)CC/C=C(\\C)CCC=C(C)C", "potent inducers"),
    ("CC(C)=CCC/C(C)=C/CNS(C)(=O)=O", "potent inducers"),
    ("CC(C)=CCC/C(C)=C/CNC(=O)CCC(=O)O", "potent inducers"),
    ("CCOC(=O)C(Cc1ccccc1)C(=O)CC/C=C(\\C)CCC=C(C)C (centres unmarked)", "potent inducers"),
    ("CC(=O)N[C@@H](C)C(=O)NC/C=C(\\C)CCC=C(C)C", "potent inducers"),
    ("CC(C)=CCC/C(C)=C/CCc1cc(O)n[nH]1", "potent inducers"),
    ("CCOC(=O)CC(=O)c1ccccc1O", "potent inducers"),
    ("CCOC(=O)C(C/C=C(\\C)CCC=C(C)C)C(=O)c1ccccc1O (centres unmarked)", "potent inducers"),
    ("CC(C)=CCC/C(C)=C/CNS(=O)(=O)C(F)(F)F", "potent inducers"),
]

###

tested on: HSP70; test: Hsp70 induction in murine proximal tubule (MPT) cells (Western blot); assay type: cell-based; details: 40 μM, 5 hours, outperformed positive control GGA
Parameter: induction of HSP70 expression in renal (MPT) cells

# Compound, Subject of test, Result
measured = [
    ("CCOC(=O)C(C/C=C(\\C)CCC=C(C)C)C(=O)c1ccccc1O (centres unmarked)", "HSP70", "strong inducers"),
    ("CCOC(=O)C(CC)C(=O)CC/C=C(\\C)CCC=C(C)C (centres unmarked)", "HSP70", "strong inducers"),
    ("CC(C)=CCC/C(C)=C/CCc1cc(O)n[nH]1", "HSP70", "strong inducers"),
    ("CC(C)=CCC/C(C)=C/CNS(C)(=O)=O", "HSP70", "strong inducers"),
    ("CC(C)=CCC/C(C)=C/CCc1cc(C)[nH]n1", "HSP70", "strong inducers"),
    ("CC(=O)N[C@@H](C)C(=O)NC/C=C(\\C)CCC=C(C)C", "HSP70", "strong inducers"),
    ("CC(C)=CCC/C(C)=C/CNS(=O)(=O)C(F)(F)F", "HSP70", "strong inducers"),
    ("CC(C)=CCC/C(C)=C/CNC(=O)CCC(=O)O", "HSP70", "strong inducers"),
    ("CC(C)=CCC/C(C)=C/CNC(=O)CN(C)C", "HSP70", "strong inducers"),
    ("CC(=O)OC/C=C(\\C)CC/C=C(\\C)COC1CCCCO1 (centres unmarked)", "HSP70", "strong inducers"),
    ("CC(C)=CCC/C(C)=C/CN1C(=O)CCC1=O", "HSP70", "strong inducers"),
]
